Data credit: patent EP4043466B1

system: PRC2-mediated histone H3 methylation; assay: Tri-Methyl Histone H3 (Lys 27) Sandwich ELISA in Pfeiffer cells: inhibition of PRC2-mediated histone H3 methylation; type: cell-based, human; settings: Homo sapiens; Inhibition of EZH2-mediated histone H3 trimethylation; Pfeiffer cells (EZH2 A677G), 96 hours incubation
Listed here: items and their measured IC50.

// solved cases for IC50 follow
Data request: // query IC50 value for entry `CNC(=O)c1ccc(-c2cnc(NCc3c(F)ccc4c3CCO4)n3cc(C#N)nc23)cc1`
Data returned: 100 to 500 nM

Data request: // query IC50 value for entry CC(O)Cn1cc(-c2cnc(NCc3c(F)ccc4c3CCO4)n3cc(C#N)nc23)cn1 (stereo not shown)
Data returned: 100 to 500 nM

Data request: // query IC50 value for entry `N#Cc1cn2c(NCc3c(F)ccc4c3CCO4)ncc(-c3ccc4c(c3)CCNC4)c2n1`
Data returned: 100 to 500 nM

// moving on: another record for IC50
Data request: // query IC50 value for entry `COc1cc(-c2cnc(NCc3c(F)ccc4c3CCO4)n3cc(C#N)nc23)c(F)cn1`
Data returned: ≤ 100 nM

###

tested on: PRC2-mediated histone H3 methylation; experiment: Tri-Methyl Histone H3 (Lys 27) Sandwich ELISA in Pfeiffer cells: inhibition of PRC2-mediated histone H3 methylation; format: cell-based, human; conditions: Homo sapiens; Inhibition of EZH2-mediated histone H3 trimethylation; Pfeiffer cells (EZH2 A677G), 96 hours incubation
Listed here: items and their measured IC50.

// solved cases for IC50 follow
Data request: // query IC50 value for entry Cc1ncccc1-c1cnc(NCc2c(F)ccc3occc23)n2cc(C(=O)O)nc12 [Example 3]
Data returned: > 500 nM

Data request: // query IC50 value for entry N#Cc1cn2c(NCc3c(F)ccc4c3CCO4)ncc(-c3cccnc3CO)c2n1 [Example 148]
Data returned: 100 to 500 nM

Data request: // query IC50 value for entry CN(C)C(=O)c1ccc(-c2cnc(NCc3c(F)ccc4c3CCO4)n3cc(C#N)nc23)cc1F [Example 36]
Data returned: ≤ 100 nM

Data request: // query IC50 value for entry CN(C)Cc1ccc(-c2cnc(NCc3c(F)ccc4c3CCO4)n3cc(C#N)nc23)cc1C#N [Example 201]
Data returned: 100 to 500 nM

Data request: // query IC50 value for entry N#Cc1cn2c(NCc3c(F)ccc4c3CCO4)ncc(-c3cnn(CC4CCOC4)c3)c2n1 (stereo not shown) [compound 154]
Data returned: 100 to 500 nM

Further cases:
Data request: // query IC50 value for entry Cn1nccc(-c2cnc(NCc3c(F)ccc4c3CCO4)n3cc(C#N)nc23)c1=O [Example 194]
Data returned: 100 to 500 nM

Data request: // query IC50 value for entry N#Cc1cn2c(NCc3c(F)ccc4c3CCO4)ncc(-c3ccncn3)c2n1 [Example 57]
Data returned: 100 to 500 nM

Data request: // query IC50 value for entry N#Cc1cn2c(NCc3c(F)ccc4c3CCO4)ncc(-c3ccc(CN4CC5CC5C4)cc3)c2n1 (stereo not shown) [Example 52]
Data returned: ≤ 100 nM

Data request: // query IC50 value for entry N#Cc1cn2c(NCc3c(F)ccc4c3CCO4)ncc(-c3ccc(C(=O)N4CCOCC4)cc3)c2n1 [Example 181]
Data returned: 100 to 500 nM

Data request: // query IC50 value for entry CN(C)CCn1nccc1-c1cnc(NCc2c(F)ccc3c2CCO3)n2cc(C#N)nc12 [Example 230]
Data returned: ≤ 100 nM

Data request: // query IC50 value for entry Cc1cc(C(=O)N(C)C)ncc1-c1cnc(NCc2c(F)ccc3c2CCO3)n2cc(C#N)nc12 [Example 76]
Data returned: ≤ 100 nM

Data request: // query IC50 value for entry Cc1cc(-c2cnc(NCc3c(F)ccc4c3CCO4)n3cc(C(=O)O)nc23)n(C)n1 [Example 1]
Data returned: > 500 nM

Data request: // query IC50 value for entry Cc1c(-c2cnc(NCc3c(F)ccc4c3CCO4)n3cc(C#N)nc23)ccc(CN(C)C)c1F [Example 85]
Data returned: ≤ 100 nM

Data request: // query IC50 value for entry N#Cc1cn2c(NCc3c(F)ccc4c3CCO4)ncc(-c3ccc(CN4CCCC4)cc3)c2n1 [Example 74]
Data returned: ≤ 100 nM

Data request: // query IC50 value for entry COC1CN(Cc2ccc(-c3cnc(NCc4c(F)ccc5c4CCO5)n4cc(C#N)nc34)cc2)C1 [Example 50]
Data returned: 100 to 500 nM

Data request: // query IC50 value for entry CN(C)C(=O)c1ccc(-c2cnc(NCc3c(F)ccc4c3CCO4)n3cc(C#N)nc23)c(Cl)c1 [Example 31]
Data returned: ≤ 100 nM

###

Listed here: items and their measured pIC50.
tested on: PRC2-mediated histone H3 methylation; test: Tri-Methyl Histone H3 (Lys 27) Sandwich ELISA in Pfeiffer cells: inhibition of PRC2-mediated histone H3 methylation; format: cell-based, human; settings: Homo sapiens; Inhibition of EZH2-mediated histone H3 trimethylation; Pfeiffer cells (EZH2 A677G), 96 hours incubation
pIC50: −log10 of the molar value.

// solved cases for pIC50 follow
Data request: // query pIC50 value for entry `CNCc1ccc(-c2cnc(NCc3c(F)ccc4c3CCO4)n3cc(C#N)nc23)cc1F`
Data returned: 6.30 to 7.00

Data request: // query pIC50 value for entry `Cc1cc(S(=O)(=O)N(C)C)ccc1-c1cnc(NCc2c(F)ccc3c2CCO3)n2cc(C#N)nc12`
Data returned: 6.30 to 7.00

Data request: // query pIC50 value for entry `Cn1cc(-c2cnc(NCc3c(F)ccc4c3CCO4)n3cc(C#N)nc23)c(C#N)n1`
Data returned: 6.30 to 7.00

Data request: // query pIC50 value for entry `N#Cc1cn2c(NCc3c(F)ccc4c3CCO4)ncc(-c3ccc(CN4CCCC4=O)cc3)c2n1`
Data returned: 6.30 to 7.00

Data request: // query pIC50 value for entry N#Cc1cn2c(NCc3c(F)ccc4c3CCO4)ncc(-c3ccc(C4CCCO4)cc3)c2n1 (centres unmarked)
Data returned: 6.30 to 7.00

Further cases:
Data request: // query pIC50 value for entry `Cc1cc(-c2cnc(NCc3c(F)ccc4c3CCO4)n3cc(C#N)nc23)ccc1CN(C)C`
Data returned: 6.30 to 7.00

Data request: // query pIC50 value for entry `CN(C)C(=O)c1cc(-c2cnc(NCc3c(F)ccc4c3CCO4)n3cc(C#N)nc23)n(C)n1`
Data returned: ≥ 7.00

Data request: // query pIC50 value for entry `Cc1cc(CN(C)C)ccc1-c1cnc(NCc2c(F)ccc3c2CCO3)n2cc(C#N)nc12`
Data returned: ≥ 7.00

Data request: // query pIC50 value for entry `COC(=O)c1ccc(-c2cnc(NCc3c(F)ccc4c3CCO4)n3cc(C#N)nc23)cc1`
Data returned: < 6.30

Data request: // query pIC50 value for entry `Cc1cc(-c2cnc(NCc3c(F)ccc4c3CCO4)n3cc(C#N)nc23)n(C)n1`
Data returned: ≥ 7.00

Data request: // query pIC50 value for entry `Cn1cccc(-c2cnc(NCc3c(F)ccc4c3CCO4)n3cc(C#N)nc23)c1=O`
Data returned: < 6.30

Data request: // query pIC50 value for entry `Cc1ncccc1-c1cnc(NCc2c(F)ccc3c2CCO3)n2cc(C(N)=O)nc12`
Data returned: 6.30 to 7.00

Data request: // query pIC50 value for entry `N#Cc1cn2c(NCc3c(F)ccc4c3CCO4)ncc(C3CC3)c2n1`
Data returned: < 6.30

Data request: // query pIC50 value for entry `COCCOc1ncc(-c2cnc(NCc3c(F)ccc4c3CCO4)n3cc(C#N)nc23)cn1`
Data returned: 6.30 to 7.00

Data request: // query pIC50 value for entry `N#Cc1cn2c(NCc3c(F)ccc4c3CCO4)ncc(-c3cnccn3)c2n1`
Data returned: 6.30 to 7.00

Data request: // query pIC50 value for entry `Cc1ccc(-c2cnc(NCc3c(F)ccc4c3CCO4)n3cc(C#N)nc23)cc1`
Data returned: < 6.30

Data request: // query pIC50 value for entry `Cc1cc(-c2cnc(NCc3c(F)ccc4sccc34)n3cc(C#N)nc23)n(C)n1`
Data returned: < 6.30

Data request: // query pIC50 value for entry `CNC(=O)c1cc(-c2cnc(NCc3c(F)ccc4c3CCO4)n3cc(C#N)nc23)n(C)n1`
Data returned: 6.30 to 7.00

###

Listed here: items and their measured IC50.
system: PRC2-mediated histone H3 methylation; assay: Tri-Methyl Histone H3 (Lys 27) Sandwich ELISA in Pfeiffer cells: inhibition of PRC2-mediated histone H3 methylation; type: cell-based, human; details: Homo sapiens; Inhibition of EZH2-mediated histone H3 trimethylation; Pfeiffer cells (EZH2 A677G), 96 hours incubation

// solved cases for IC50 follow
Data request: // query IC50 value for entry Cc1c(C#N)cccc1-c1cnc(NCc2c(F)ccc3c2CCO3)n2cc(C#N)nc12 [Example 176]
Data returned: 100 to 500 nM

Data request: // query IC50 value for entry [2H]C([2H])(c1ccc(-c2cnc(NCc3c(F)ccc4c3CCO4)n3cc(C#N)nc23)c(C)c1)N(C)C [Example 173]
Data returned: ≤ 100 nM

Data request: // query IC50 value for entry COC(=O)c1ccc(-c2cnc(NCc3c(F)ccc4c3CCO4)n3cc(C#N)nc23)cn1 [Example 166]
Data returned: > 500 nM

Data request: // query IC50 value for entry N#Cc1cn2c(NCc3c(F)ccc4c3CCO4)ncc(-c3ccc([C@@H]4CCCN4)cc3)c2n1 [Example 219]
Data returned: 100 to 500 nM

Data request: // query IC50 value for entry Cn1nc(C(=O)N2CCOCC2)cc1-c1cnc(NCc2c(F)ccc3c2CCO3)n2cc(C#N)nc12 [Example 209]
Data returned: ≤ 100 nM

Data request: // query IC50 value for entry CN1CCc2cc(-c3cnc(NCc4c(F)ccc5c4CCO5)n4cc(C#N)nc34)ccc2C1=O [Example 168]
Data returned: 100 to 500 nM

Further cases:
Data request: // query IC50 value for entry Cc1ccc(-c2cnc(NCc3c(F)ccc4c3CCO4)n3cc(C#N)nc23)c(C)n1 [Example 67]
Data returned: ≤ 100 nM

Data request: // query IC50 value for entry CN1CCCC1c1ccc(-c2cnc(NCc3c(F)ccc4c3CCO4)n3cc(C#N)nc23)cc1 (centres unmarked) [Example 160]
Data returned: ≤ 100 nM
